- Experimental system: EPHA5 (human)
- Test summary: radiometric filter-binding kinase assay, Kinase HotSpot
- Conditions used: compound 0.5 µM; ATP 10 µM
Attribute measured: residual activity (%)

Substance smiles: FC(F)(F)c1ccc(/C=C/c2nc(COc3ccc(CCCCn4ccnn4)cc3)co2)cc1
Result number: 99.9
--
Substance smiles: Cn1cc(/C=C2\C(=O)Nc3ccc(S(N)(=O)=O)cc32)c2ccccc21
Result number: 69.3
--
Substance smiles: CCc1nc(-c2ccc(OC)cc2)[nH]c1-c1ccncc1
Result number: 100
--
Substance smiles: N#Cc1c(NC(=O)c2cccc3ccccc23)sc2c1CCCC2
Result number: 99.6
--
Substance smiles: O=C(O)c1ccc2c3c1cccc3c(=O)n1c3ccccc3nc21
Result number: 94.2
--
Substance smiles: COc1cc2ncnc(Nc3ccc(O)c(Br)c3)c2cc1OC
Result number: 72.3
--
Substance smiles: O=C(c1ccccc1)c1ccc(N2CCOCC2)cc1O
Result number: 112
--
Substance smiles: O=c1c2ccccc2[nH]c(=S)n1CCN1CCC(=C(c2ccc(F)cc2)c2ccc(F)cc2)CC1
Result number: 112
--
Substance smiles: N#CCCc1ccc2c(c1)-c1[nH]c3ccc([N+](=O)[O-])cc3c1CC(=O)N2
Result number: 88.5
--
Substance smiles: COc1cc2c(N3CCN(C(=O)Nc4ccc(OC(C)C)cc4)CC3)ncnc2cc1OCCCN1CCCCC1
Result number: 104
--
Substance smiles: O=S(=O)(NCCNC/C=C/c1ccc(Br)cc1)c1cccc2cnccc12
Result number: 96.9
--
Substance smiles: COc1cc2c(Nc3ccc(Br)cc3F)ncnc2cc1OCC1CCN(C)CC1
Result number: 54.4
--
Substance smiles: CCOc1cc2ncnc(Nc3cccc(Br)c3)c2cc1OCC
Result number: 69.5
--
Substance smiles: c1ccc(-c2cnc(Nc3ccc(OCCN4CCCC4)cc3)s2)cc1
Result number: 97
--
Substance smiles: CCCCc1c(-c2ccc(O)cc2)[nH]c2nccnc12
Result number: 96.4
--
Substance smiles: COc1cccc(-c2cc(=O)c3ccccc3o2)c1N
Result number: 97.9
--
Substance smiles: O=c1[nH]c2ccccc2n1C1CCN(Cc2ccc(-c3nc4cc5[nH]cnc5cc4nc3-c3ccccc3)cc2)CC1
Result number: 102
--
Substance smiles: Cc1cc(Nc2nc(-c3ccccc3)nc3ccccc23)n[nH]1
Result number: 90.6
--
Substance smiles: COc1cc2c(cc1OC)-c1[nH]nc(Nc3cccc(F)c3)c1C2
Result number: 93.4
--
Substance smiles: N#C/C(=C1/Nc2ccccc2S1)c1ccnc(NCCc2cccnc2)n1
Result number: 113
--
Substance smiles: N/C(=N\N=C/c1ccc(-c2cccc([N+](=O)[O-])c2)o1)N[N+](=O)[O-]
Result number: 100
--
Substance smiles: O=C1NC(=O)c2cc(Nc3ccc(F)cc3)c(Nc3ccc(F)cc3)cc21
Result number: 95.4

* * *

- Experimental system: MARK2 (human) (UniProt Q7KZI7)
- Sequence (Q7KZI7 whole entry, looked up): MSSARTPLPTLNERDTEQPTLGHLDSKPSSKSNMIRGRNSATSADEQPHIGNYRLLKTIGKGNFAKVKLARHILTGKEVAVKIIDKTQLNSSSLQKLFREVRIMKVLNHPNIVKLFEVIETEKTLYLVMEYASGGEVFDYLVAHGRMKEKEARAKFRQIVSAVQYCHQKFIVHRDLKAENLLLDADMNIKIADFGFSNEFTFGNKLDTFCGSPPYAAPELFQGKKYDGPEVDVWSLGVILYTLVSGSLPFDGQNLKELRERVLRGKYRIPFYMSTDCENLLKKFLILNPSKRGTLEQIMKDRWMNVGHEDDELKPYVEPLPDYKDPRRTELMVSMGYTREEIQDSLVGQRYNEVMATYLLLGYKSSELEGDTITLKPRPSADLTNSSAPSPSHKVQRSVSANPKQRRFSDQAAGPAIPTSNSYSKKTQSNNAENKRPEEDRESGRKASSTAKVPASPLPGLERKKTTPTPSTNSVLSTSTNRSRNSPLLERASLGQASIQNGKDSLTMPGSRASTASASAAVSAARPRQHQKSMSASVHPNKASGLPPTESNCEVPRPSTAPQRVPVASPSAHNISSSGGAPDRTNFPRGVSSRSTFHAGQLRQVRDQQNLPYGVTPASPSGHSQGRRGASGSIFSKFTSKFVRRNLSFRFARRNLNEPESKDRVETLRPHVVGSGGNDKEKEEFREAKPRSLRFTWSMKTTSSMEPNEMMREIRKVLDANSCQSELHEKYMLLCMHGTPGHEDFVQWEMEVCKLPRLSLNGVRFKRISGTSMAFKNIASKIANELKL
- Test summary: radiometric filter-binding kinase assay, Kinase HotSpot
- Conditions used: compound 0.5 µM; ATP 10 µM

Substance smiles: O=C(c1ccccc1)c1ccc(N2CCOCC2)cc1O
Readout unit: %
residual activity: 107
--
Substance smiles: O=c1c2ccccc2[nH]c(=S)n1CCN1CCC(=C(c2ccc(F)cc2)c2ccc(F)cc2)CC1
Readout unit: %
residual activity: 108
--
Substance smiles: CCc1nc(-c2ccc(OC)cc2)[nH]c1-c1ccncc1
Readout unit: %
residual activity: 99.4
--
Substance smiles: O=C(O)c1ccc2c3c1cccc3c(=O)n1c3ccccc3nc21
Readout unit: %
residual activity: 87.7

* * *

- Experimental system: BMX (human) (UniProt P51813)
- Sequence (P51813 whole entry, looked up): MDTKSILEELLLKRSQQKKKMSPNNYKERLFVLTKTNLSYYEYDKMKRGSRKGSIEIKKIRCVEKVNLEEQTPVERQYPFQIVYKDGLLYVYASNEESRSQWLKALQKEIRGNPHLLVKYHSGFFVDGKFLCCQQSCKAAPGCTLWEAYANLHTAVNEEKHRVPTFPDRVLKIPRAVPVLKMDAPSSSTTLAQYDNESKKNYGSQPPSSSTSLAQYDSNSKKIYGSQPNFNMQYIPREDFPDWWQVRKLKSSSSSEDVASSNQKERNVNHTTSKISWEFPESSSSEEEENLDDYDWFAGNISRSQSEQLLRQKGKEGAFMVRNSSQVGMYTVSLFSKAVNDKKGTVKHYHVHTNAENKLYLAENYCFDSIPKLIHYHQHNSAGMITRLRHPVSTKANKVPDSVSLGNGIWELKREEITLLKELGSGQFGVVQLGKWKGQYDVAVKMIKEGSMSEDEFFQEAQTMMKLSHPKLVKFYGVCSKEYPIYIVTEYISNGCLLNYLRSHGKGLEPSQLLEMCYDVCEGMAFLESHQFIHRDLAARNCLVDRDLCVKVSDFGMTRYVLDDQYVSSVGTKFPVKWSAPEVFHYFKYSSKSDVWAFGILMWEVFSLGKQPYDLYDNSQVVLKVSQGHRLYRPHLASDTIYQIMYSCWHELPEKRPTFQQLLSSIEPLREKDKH
- Test summary: radiometric filter-binding kinase assay, Kinase HotSpot
- Conditions used: compound 0.5 µM; ATP 10 µM
Attribute measured: residual activity (%)

Substance smiles: O=C1NC(=O)c2c1c1c3ccccc3[nH]c1c1[nH]c3cc(Br)ccc3c21
Experimental system: BMX (human) (UniProt P51813)
Attribute measured: residual activity
Result number: 92
//
Substance smiles: COc1cc2c(N3CCN(C(=O)Nc4ccc(OC(C)C)cc4)CC3)ncnc2cc1OCCCN1CCCCC1
Experimental system: BMX (human) (UniProt P51813)
Attribute measured: residual activity
Result number: 109
//
Substance smiles: O=C1NC(=O)c2cc(Nc3ccc(F)cc3)c(Nc3ccc(F)cc3)cc21
Experimental system: BMX (human) (UniProt P51813)
Attribute measured: residual activity
Result number: 95.3
//
Substance smiles: O=C(O)c1ccc2c3c1cccc3c(=O)n1c3ccccc3nc21
Experimental system: BMX (human) (UniProt P51813)
Attribute measured: residual activity
Result number: 96.4
//
Substance smiles: O=S(=O)(NCCNC/C=C/c1ccc(Br)cc1)c1cccc2cnccc12
Experimental system: BMX (human) (UniProt P51813)
Attribute measured: residual activity
Result number: 102
//
Substance smiles: CCc1nc(-c2ccc(OC)cc2)[nH]c1-c1ccncc1
Experimental system: BMX (human) (UniProt P51813)
Attribute measured: residual activity
Result number: 93.4
//
Substance smiles: Nc1ncnc2c1cnn2-c1ccccc1
Experimental system: BMX (human) (UniProt P51813)
Attribute measured: residual activity
Result number: 96.8
//
Substance smiles: COc1cc2c(Nc3ccc(Br)cc3F)ncnc2cc1OCC1CCN(C)CC1
Experimental system: BMX (human) (UniProt P51813)
Attribute measured: residual activity
Result number: 88.4
//
Substance smiles: N#Cc1c(NC(=O)c2cccc3ccccc23)sc2c1CCCC2
Experimental system: BMX (human) (UniProt P51813)
Attribute measured: residual activity
Result number: 101
//
Substance smiles: Cn1cc(/C=C2\C(=O)Nc3ccc(S(N)(=O)=O)cc32)c2ccccc21
Experimental system: BMX (human) (UniProt P51813)
Attribute measured: residual activity
Result number: 77
//
Substance smiles: Cc1cc(Nc2nc(-c3ccccc3)nc3ccccc23)n[nH]1
Experimental system: BMX (human) (UniProt P51813)
Attribute measured: residual activity
Result number: 41.1

* * *

Readings of residual activity for the listed compounds
- Experimental system: EPHA3 (human)
- Test summary: radiometric filter-binding kinase assay, Kinase HotSpot
- Conditions used: compound 0.5 µM; ATP 10 µM

Substance smiles: N#C/C(=C1/Nc2ccccc2S1)c1ccnc(NCCc2cccnc2)n1
Experimental system: EPHA3 (human)
residual activity: 75.1%
//
Substance smiles: O=c1c2ccccc2[nH]c(=S)n1CCN1CCC(=C(c2ccc(F)cc2)c2ccc(F)cc2)CC1
Experimental system: EPHA3 (human)
residual activity: 101%
//
Substance smiles: O=C(c1ccccc1)c1ccc(N2CCOCC2)cc1O
Experimental system: EPHA3 (human)
residual activity: 105%
//
Substance smiles: O=C(O)c1ccc2c3c1cccc3c(=O)n1c3ccccc3nc21
Experimental system: EPHA3 (human)
residual activity: 104%

* * *

- Experimental system: UniProt:Q6P2M8
- Sequence (Q6P2M8 whole entry, looked up): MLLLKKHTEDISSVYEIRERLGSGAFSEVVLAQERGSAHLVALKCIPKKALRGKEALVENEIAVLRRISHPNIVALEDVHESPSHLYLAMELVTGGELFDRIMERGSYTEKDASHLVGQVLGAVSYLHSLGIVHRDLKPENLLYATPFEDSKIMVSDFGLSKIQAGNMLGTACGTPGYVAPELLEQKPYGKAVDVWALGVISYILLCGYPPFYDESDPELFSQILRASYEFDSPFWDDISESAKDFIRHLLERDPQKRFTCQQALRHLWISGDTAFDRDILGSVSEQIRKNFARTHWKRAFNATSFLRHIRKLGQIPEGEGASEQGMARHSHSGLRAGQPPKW
- Test summary: radiometric filter-binding kinase assay, Kinase HotSpot
- Conditions used: compound 0.5 µM; ATP 10 µM

Substance smiles: FC(F)(F)c1ccc(/C=C/c2nc(COc3ccc(CCCCn4ccnn4)cc3)co2)cc1
residual activity [%]: 96.6

Substance smiles: Cn1cc(/C=C2\C(=O)Nc3ccc(S(N)(=O)=O)cc32)c2ccccc21
residual activity [%]: 58.1

Substance smiles: O=c1c(-c2ccc(F)cc2)c(-c2ccncc2)[nH]n1-c1ccc(Cl)cc1
residual activity [%]: 92

Substance smiles: COc1cccc(-c2cc(=O)c3ccccc3o2)c1N
residual activity [%]: 96.8

Substance smiles: COc1cc2c(cc1OC)-c1[nH]nc(Nc3cccc(F)c3)c1C2
residual activity [%]: 98

Substance smiles: O=C1NC(=O)c2cc(Nc3ccc(F)cc3)c(Nc3ccc(F)cc3)cc21
residual activity [%]: 97.3

Substance smiles: O=c1cc(N2CCOCC2)oc2c(-c3ccccc3)cccc12
residual activity [%]: 98.4

Substance smiles: Cc1cc(Nc2nc(-c3ccccc3)nc3ccccc23)n[nH]1
residual activity [%]: 102

Substance smiles: N#C/C(=C1/Nc2ccccc2S1)c1ccnc(NCCc2cccnc2)n1
residual activity [%]: 100

Substance smiles: O=S(=O)(NCCNC/C=C/c1ccc(Br)cc1)c1cccc2cnccc12
residual activity [%]: 100

Substance smiles: N#Cc1c(NC(=O)c2cccc3ccccc23)sc2c1CCCC2
residual activity [%]: 104

Substance smiles: O=c1[nH]c2ccccc2n1C1CCN(Cc2ccc(-c3nc4cc5[nH]cnc5cc4nc3-c3ccccc3)cc2)CC1
residual activity [%]: 95.5

Substance smiles: COc1cc2c(Nc3ccc(Br)cc3F)ncnc2cc1OCC1CCN(C)CC1
residual activity [%]: 99.5

Substance smiles: COc1cc2c(N3CCN(C(=O)Nc4ccc(OC(C)C)cc4)CC3)ncnc2cc1OCCCN1CCCCC1
residual activity [%]: 97.7

Substance smiles: O=C1NC(=O)c2c1c1c3ccccc3[nH]c1c1[nH]c3cc(Br)ccc3c21
residual activity [%]: 99.4

Substance smiles: CCOc1cc2ncnc(Nc3cccc(Br)c3)c2cc1OCC
residual activity [%]: 103

Substance smiles: COc1cc2ncnc(Nc3ccc(O)c(Br)c3)c2cc1OC
residual activity [%]: 103

Substance smiles: CCc1nc(-c2ccc(OC)cc2)[nH]c1-c1ccncc1
residual activity [%]: 102

Substance smiles: O=C(O)c1ccc2c3c1cccc3c(=O)n1c3ccccc3nc21
residual activity [%]: 101

Substance smiles: N#CCCc1ccc2c(c1)-c1[nH]c3ccc([N+](=O)[O-])cc3c1CC(=O)N2
residual activity [%]: 107

Substance smiles: O=C(c1ccccc1)c1ccc(N2CCOCC2)cc1O
residual activity [%]: 101

Substance smiles: N/C(=N\N=C/c1ccc(-c2cccc([N+](=O)[O-])c2)o1)N[N+](=O)[O-]
residual activity [%]: 100
